Entries and their measured HS (Hill slope) follow.
tested on: human factor XIa (Homo sapiens)
Sequence (P03951 19-387 limits assumed): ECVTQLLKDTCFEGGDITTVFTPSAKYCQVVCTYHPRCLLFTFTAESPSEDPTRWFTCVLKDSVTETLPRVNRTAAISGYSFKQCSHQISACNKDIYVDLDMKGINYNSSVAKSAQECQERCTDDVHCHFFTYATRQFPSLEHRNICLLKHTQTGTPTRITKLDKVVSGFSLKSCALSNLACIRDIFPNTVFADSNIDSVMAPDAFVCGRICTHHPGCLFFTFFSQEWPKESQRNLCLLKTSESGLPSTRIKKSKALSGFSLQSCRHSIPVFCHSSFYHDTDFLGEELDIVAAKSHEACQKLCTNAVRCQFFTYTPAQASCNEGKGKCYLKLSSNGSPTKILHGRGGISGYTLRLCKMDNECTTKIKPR
Sequence (P03951 388-625 limits assumed): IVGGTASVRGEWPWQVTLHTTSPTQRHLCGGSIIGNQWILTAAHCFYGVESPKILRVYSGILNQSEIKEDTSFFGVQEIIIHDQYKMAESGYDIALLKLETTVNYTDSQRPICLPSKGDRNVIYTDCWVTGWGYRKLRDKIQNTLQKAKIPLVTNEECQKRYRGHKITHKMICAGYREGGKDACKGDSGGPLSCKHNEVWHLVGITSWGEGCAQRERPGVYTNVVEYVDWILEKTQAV
test protocol: Dose-response inhibition of wild-type factor XIa, S-2366 hydrolysis assay
measurement parameters: logistic fit eq 1
endpoint: HS (Hill slope)

1) CCOC(=O)c1c(C)oc2cc(OC)c(OCc3oc4cc(OC)c(OCc5oc6cc(OC)c(OCc7oc8cc(OC)c(OS(=O)(=O)[O-])cc8c7C(=O)OCC)cc6c5C(=O)OCC)cc4c3C(=O)OCC)cc12.[Na+] [compound 32]; 1.3
2) CCOC(=O)c1c(COc2cc3c(C(=O)O)c(C)oc3cc2OC)oc2cc(OC)c(OCc3oc4cc(OC)c(OS(=O)(=O)[O-])cc4c3C(=O)OCC)cc12.[Na+] [compound 30]; 6.9
3) CCOC(=O)c1c(C)oc2cc(OC)c(OCc3oc4cc(OC)c(OCc5oc6cc(OC(C)C)c(OS(=O)(=O)[O-])cc6c5C(=O)OCC)cc4c3C(=O)OCC)cc12.[Na+] [compound 25]; 6.6
4) COC(=O)c1c(C)oc2cc(OC)c(OCc3oc4cc(OC)c(OS(=O)(=O)[O-])cc4c3C(=O)OC)cc12.[Na+] [compound 15]; 6.9
5) CCOC(=O)c1c(C)oc2cc(OC)c(OCc3oc4cc(OCC)c(OS(=O)(=O)[O-])cc4c3C(=O)OCC)cc12.[Na+] [compound 21]; 1.9
6) CCOC(=O)c1c(C)oc2cc(OC)c(OCc3oc4cc(OC)c(OCc5oc6cc(OC)c(OS(=O)(=O)[O-])cc6c5C(=O)OC)cc4c3C(=O)OCC)cc12.[Na+] [compound 23]; 5.2
7) CCOC(=O)c1c(C)oc2cc(OC)c(OCc3oc4cc(OC)c(OCc5oc6cc(OC)c(OS(=O)(=O)[O-])cc6c5C(=O)OCC)cc4c3C(=O)OCC)cc12.[Na+] [compound 27]; 11.7
8) C=CCOC(=O)c1c(C)oc2cc(OC)c(OCc3oc4cc(OC)c(OCc5oc6cc(OC)c(OS(=O)(=O)[O-])cc6c5C(=O)OCC)cc4c3C(=O)OCC)cc12.[Na+] [compound 28]; 6.4
9) N#Cc1c(SCC(=O)c2cccc(OS(=O)(=O)[O-])c2OS(=O)(=O)[O-])nc([N+](=O)[O-])c(C#N)c1-c1ccc(Oc2ccccc2)cc1.[Na+].[Na+] [compound 61]; 6.2

###

tested on: human factor XIa (Homo sapiens)
test protocol: Dose-response inhibition of wild-type factor XIa, S-2366 hydrolysis assay
measurement parameters: logistic fit eq 1; residual activity Y in %
endpoint: Y0 (minimum value of the residual activity)

1. O=C(Nc1ccc(OS(=O)(=O)[O-])cc1)c1cccc(N2C(=O)c3ccc(C(=O)Nc4ccc(OS(=O)(=O)[O-])cc4)cc3C2=O)c1.[Na+].[Na+]; 0
2. CCOC(=O)c1c(C)oc2cc(OC)c(OCc3oc4cc(OC)c(OCc5oc6cc(OC)c(OCc7oc8cc(OC)c(OS(=O)(=O)[O-])cc8c7C(=O)OCC)cc6c5C(=O)OCC)cc4c3C(=O)OCC)cc12.[Na+]; 0
3. C=CCOC(=O)c1c(C)oc2cc(OC)c(OCc3oc4cc(OC)c(OCc5oc6cc(OC)c(OS(=O)(=O)[O-])cc6c5C(=O)OCC)cc4c3C(=O)OCC)cc12.[Na+]; 10
4. CCOC(=O)c1c(COc2cc3c(C(=O)OCC)c(COc4cc5c(C(=O)O)c(C)oc5cc4OC)oc3cc2OC)oc2cc(OC)c(O)cc12; 0
5. CCOC(=O)c1c(C)oc2cc(OC)c(OCc3oc4cc(OC)c(OCc5oc6cc(OC)c(OS(=O)(=O)[O-])cc6c5C(=O)OC)cc4c3C(=O)OCC)cc12.[Na+]; 7
6. N#Cc1c(SCC(=O)c2cccc(OS(=O)(=O)[O-])c2OS(=O)(=O)[O-])nc([N+](=O)[O-])c(C#N)c1-c1ccc(Oc2ccccc2)cc1.[Na+].[Na+]; 0
7. CCOC(=O)c1c(C)oc2cc(OC)c(OCc3oc4cc(OC)c(OCc5oc6cc(OC)c(OS(=O)(=O)[O-])cc6c5C(=O)OCC)cc4c3C(=O)OCC)cc12.[Na+]; 2
8. CCOC(=O)c1c(C)oc2cc(OC)c(OCc3oc4cc(OC)c(OCc5oc6cc(OC(C)C)c(OS(=O)(=O)[O-])cc6c5C(=O)OCC)cc4c3C(=O)OCC)cc12.[Na+]; 3
9. CCOC(=O)c1c(C)oc2cc(OC)c(OCc3oc4cc(OCC)c(OS(=O)(=O)[O-])cc4c3C(=O)OCC)cc12.[Na+]; 0
10. COC(=O)c1c(C)oc2cc(OC)c(OCc3oc4cc(OC)c(OS(=O)(=O)[O-])cc4c3C(=O)OC)cc12.[Na+]; 4
11. CCOC(=O)c1c(C)oc2cc(OC)c(OCc3oc4cc(OC)c(OCc5oc6cc(OCC)c(OS(=O)(=O)[O-])cc6c5C(=O)OCC)cc4c3C(=O)OCC)cc12.[Na+]; 0
12. CCOC(=O)c1c(COc2cc3c(C(=O)O)c(C)oc3cc2OC)oc2cc(OC)c(OCc3oc4cc(OC)c(OS(=O)(=O)[O-])cc4c3C(=O)OCC)cc12.[Na+]; 3
